- System: Fibroblast
- Assay protocol: Multiplex assay against human fibroblast
- Assay type: toxicity, cell-based
- Run parameters: 24 h, 10 µM, compound concentration 10 uM, replicate 2
Metric name: Population Hoechst High Intensity Objects (%)
Write the number in % without appending the unit.

| Compound | Target of assay | Obs value |
| --- | --- | --- |
| CCCCC(=O)N(Cc1ccc(-c2ccccc2-c2nnn[nH]2)cc1)[C@H](C(=O)O)C(C)C | Fibroblast | 4 |

q: Retrieve Population Hoechst High Intensity Objects (%) measured for CC(C)c1noc(N2CCC(COc3ccc(-c4ccc(S(C)(=O)=O)cc4)nc3)CC2)n1 [GSK-1292263] and print it.
a: 3

q: Name the recorded Population Hoechst High Intensity Objects (%) of the item NCCc1cn(S(=O)(=O)c2c(Cl)nc3sccn23)c2ccccc12.O=C(O)C(=O)O in your answer.
a: 7

q: Return Population Hoechst High Intensity Objects (%) (reported value) for this compound: CN[C@@H](C)C(=O)N[C@H](C(=O)N1CCC[C@H]1C(=O)Nc1snnc1-c1ccccc1)C1CCCCC1 [GDC-0152]
a: 8

---

Here the recorded Population Membrane Permeable-Phenotype (%) is given for each entry.
- Test system: Fibroblast
- Assay protocol: Multiplex assay against human fibroblast
- Type: toxicity, cell-based
- Run parameters: 24 h, 1 µM, compound concentration 1 uM, replicate 2
Number in %, nothing else.

Use the examples below as a reference point.
| Molecule | Target of assay | Obs value |
| --- | --- | --- |
| Cl.N=C(N)NC(=O)Cc1c(Cl)cccc1Cl [GUANFACINE HYDROCHLORIDE] | Fibroblast | 12 |
| Cl.NCCc1ccc(O)c(O)c1 [DOPAMINE HYDROCHLORIDE] | Fibroblast | 7 |
| Br.CS(=O)(=O)Nc1c(O)ccc2c1CCCC2C1=NCCN1 (centres undefined) | Fibroblast | 2 |

Shift focus to the following entry.
q: Quick one: give measured Population Membrane Permeable-Phenotype (%) for CC(/C=C1\SC(=S)N(CCCC(=O)Nc2ccc(C(=O)O)c(O)c2)C1=O)=C\c1ccccc1
a: 5

---

- Test system: Fibroblast
- Assay protocol: Multiplex assay against human fibroblast
- Format: toxicity, cell-based
- Run parameters: 12 h, 10 µM, compound concentration 10 uM, replicate 1
Metric name: Population Membrane Permeable-Phenotype (%)
Form entry: value (%) — number only.

Worked cases, answers included:
| Molecule | Uom | Obs value |
| --- | --- | --- |
| O=C(CCCc1ccccc1)Nc1nc2ccccc2c(=O)s1 | % | 1 |
| O=C(NCCN1CCC(n2c(=O)[nH]c3cc(Cl)ccc32)CC1)c1ccc(F)cc1 [HALOPEMIDE] | % | 0 |
| Cc1cnc(-c2cc(N3CCN(C(=O)CCS(C)(=O)=O)CC3)ncc2Cl)c(C)c1 | % | 1 |
| CC(=O)Nc1cccc2c1c(Sc1ccc(Cl)cc1)c(C)n2CC(=O)O | % | 2 |
| CCc1cc2cc(NS(=O)(=O)c3ccc(C#N)cc3)ccc2n(CC)c1=O | % | 1 |

Next, consider the following molecule.
q: Under Fibroblast, report Population Membrane Permeable-Phenotype (%) for CCCOc1ccc2[nH]cc(C3=CCNCC3)c2n1.Cl
a: 0

---

- System: HEK-293T
- Assay protocol: Multiplex assay against HEK293T
- Assay type: toxicity, cell-based
- Run parameters: human, 48 h, 1 µM, compound concentration 1 uM, replicate 1
Threshold 800. Total Cell Count below it: y. Total Cell Count at it or above: n.

Study these solved cases before continuing.
| Compound | Class label |
| --- | --- |
| CCCCC(=O)N(Cc1ccc(-c2ccccc2-c2nnn[nH]2)cc1)[C@H](C(=O)O)C(C)C | n |
| Cc1sc2c(c1C)C(c1ccc(Cl)cc1)=N[C@@H](CC(=O)NCCCCCCCCNC(=O)COc1cccc3c1C(=O)N(C1CCC(=O)NC1=O)C3=O)c1nnc(C)n1-2 (stereo partly drawn) | y |
| CN1CCN(c2cc(-c3ccccc3)nc(N)n2)CC1 | y |

q: Strictly below 800: is that where Total Cell Count of CCCCC1=NC2(CCCC2)C(=O)N1Cc1ccc(-c2ccccc2-c2nnn[nH]2)cc1 sits?
a: n

q: I'd appreciate it if you could check whether Cc1cnc(-c2cc(N3CCN(C(=O)CCS(C)(=O)=O)CC3)ncc2Cl)c(C)c1 has Total Cell Count smaller than 800.
a: y

q: A record lists CC(/C=C1\SC(=S)N(CCCC(=O)Nc2ccc(C(=O)O)c(O)c2)C1=O)=C\c1ccccc1 . Is its Total Cell Count below 800?
a: n

q: Is it true that Total Cell Count reported for CCCCCC(O)/C=C/[C@H]1C(=O)CC(O)C1C/C=C\CCCC(=O)O (stereo partly drawn) is less than 800?
a: n

q: # check: Total Cell Count < 800 for CC(C)COc1ccc(CNC(=O)N(Cc2ccc(F)cc2)C2CCN(C)CC2)cc1
a: n

q: Given NCCc1cn(S(=O)(=O)c2c(Cl)nc3sccn23)c2ccccc12.O=C(O)C(=O)O , is recorded Total Cell Count strictly lower than 800?
a: n

q: Total Cell Count strictly < 800 for this compound? O=C1[C@H](Cc2ccc(O)cc2)N2C(=O)CCN(C(=O)NCc3ccccc3)[C@H]2CN1Cc1cccc2ccccc12
a: y

q: Consider the compound CCc1cc2cc(NS(=O)(=O)c3ccc(C#N)cc3)ccc2n(CC)c1=O . Is its Total Cell Count strictly less than 800?
a: n

q: I wonder whether Cc1cccc(NC(=O)CN2CCC(c3ccccn3)CC2)c1.Cl.Cl has Total Cell Count below 800. Can you tell?
a: y

q: I'd appreciate it if you could check whether CC(=O)Nc1cccc2c1c(Sc1ccc(Cl)cc1)c(C)n2CC(=O)O has Total Cell Count smaller than 800.
a: n

q: Check if Total Cell Count falls below 800 for Cc1c(CC(=O)O)c2cccnc2n1Cc1ccc(S(C)(=O)=O)cc1C(F)(F)F .
a: n

q: Criterion: Total Cell Count strictly below 800. Is it met by CC(C)c1noc(N2CCC(COc3ccc(-c4ccc(S(C)(=O)=O)cc4)nc3)CC2)n1 ?
a: n

q: Field: below-cutoff. Rule: recorded Total Cell Count strictly less than 800. Subject: CCCOc1ccc2[nH]cc(C3=CCNCC3)c2n1.Cl
a: n

q: Please indicate whether the reported Total Cell Count of N#Cc1c(Oc2cccc(OS(=O)(=O)CCCC(F)(F)F)c2)cccc1C(F)(F)F is strictly below 800.
a: n

q: Total Cell Count strictly < 800 for this compound? Cl.N=C(N)NC(=O)Cc1c(Cl)cccc1Cl [GUANFACINE HYDROCHLORIDE]
a: y

q: Confirm or reject: Total Cell Count of COC[C@@H](c1ccc(C(F)(F)F)cc1)N1CCN(C2(C)CCN(C(=O)c3c(C)ncnc3C)CC2)C[C@@H]1C.O=C(O)/C=C\C(=O)O [VICRIVIROC MALEATE] lies strictly below 800
a: n

q: Please check: Total Cell Count for CN[C@@H](C)C(=O)N[C@H](C(=O)N1CCC[C@H]1C(=O)Nc1snnc1-c1ccccc1)C1CCCCC1 , strictly under 800 or not?
a: n

---

Total Cell Count values for the compounds below.
- System: HEK-293T
- Assay protocol: Multiplex assay against HEK293T
- Assay type: toxicity, cell-based
- Run parameters: human, 48 h, 10 µM, compound concentration 10 uM, replicate 2

| Compound | Total Cell Count |
| --- | --- |
| Br.CS(=O)(=O)Nc1c(O)ccc2c1CCCC2C1=NCCN1 (stereo not drawn) | 584 |
| Cl.N=C(N)NC(=O)Cc1c(Cl)cccc1Cl [GUANFACINE HYDROCHLORIDE] | 612 |

Lab note: next compound to report on.
q: Give Total Cell Count for the following compound: CC(C)c1noc(N2CCC(COc3ccc(-c4ccc(S(C)(=O)=O)cc4)nc3)CC2)n1
a: 595

---

- Test system: U2OS
- Assay protocol: Multiplex assay against U2OS
- Assay type: toxicity, cell-based
- Run parameters: human, 12 h, 10 µM, compound concentration 10 uM, replicate 2
# Population Mitotic Cells (%) binned as L (below 9%), M (9% to below 30%), H (30% or more)

| Compound | Class label |
| --- | --- |
| Br.CS(=O)(=O)Nc1c(O)ccc2c1CCCC2C1=NCCN1 (stereo unspecified) | L |
| CN[C@@H](C)C(=O)N[C@H](C(=O)N1CCC[C@H]1C(=O)Nc1snnc1-c1ccccc1)C1CCCCC1 | M |

q: Lab note: sort COc1cccc2c1c(NS(=O)(=O)c1ccc(Cl)s1)nn2Cc1cccc(CNC(=O)C(C)(C)O)c1 into the matching Population Mitotic Cells (%) band.
a: M

q: Hi there! Could you help me figure out the category for COC[C@@H](c1ccc(C(F)(F)F)cc1)N1CCN(C2(C)CCN(C(=O)c3c(C)ncnc3C)CC2)C[C@@H]1C.O=C(O)/C=C\C(=O)O [VICRIVIROC MALEATE] please?
a: H

q: State the band of CCCOc1ccc2[nH]cc(C3=CCNCC3)c2n1.Cl
a: H

q: Bin this entry: CCCCCC(O)/C=C/[C@H]1C(=O)CC(O)C1C/C=C\CCCC(=O)O (stereo partly specified)
a: H

q: Record O=C(CCCc1ccccc1)Nc1nc2ccccc2c(=O)s1 — which class?
a: L

q: Could you place CC[C@@H](C)Nc1nc(C)nc2c(-c3ccc(OC)nc3C)c(C)nn12 in its proper category? Many thanks.
a: M
